assay: binders of probe aHhip on microarray, primary screen, stem cell growth factor project, biochemical, small-molecule microarray, fluorescence 635/667 (AID 1087); details: higher = more signal;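 further: score merges spot fluorescence at 667nm with spot signal to noise ratio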
# composite z-score per record follows
Returns: the value as a bare number; no unit string appended.

{"Compound": "COC(=O)[C@H](C)NC(=O)CCC1CC(OC(=O)NCc2ccc3c(c2)OCO3)CC2(CCCC(COC(=O)NCc3ccccc3)O2)O1 (some centres undefined)", "composite z-score": -0.212}

Please give the measured composite z-score for this compound: CC(=O)OC[C@H]1O[C@H](CC=NOCC[C@@H]2C=C[C@H](OC(C)=O)[C@@H](COC(C)=O)O2)C=C[C@@H]1OC(C)=O
0.0623

Please give the measured composite z-score for this compound: COC(=O)[C@H](C)NC(=O)CCC1CC(OC(=O)NCc2cccc3ccccc23)CC2(CCCC(COC(=O)NCCc3ccccc3OC)O2)O1 (some centres undefined)
0.24

Please give the measured composite z-score for this compound: O=C1C2=CC[C@H]3C(=O)N(C[C@@H]4CCCO4)C(=O)[C@H]3[C@H]2[C@H](O)[C@@H]2O[C@H]12
-0.145
